Quick reference for CHLORIDE among some compounds
Organism: Rattus norvegicus
Assay: DrugMatrix - Regimen: Daily Repeat
Assay type: toxicity, organism-based, Sprague-Dawley
Parameters: regimen Daily Repeat, gender Male, age 6-8 weeks
Conditions: in vivo, po, 0 mg/kg, 120 h, tissue Plasma, route oral GAVAGE, dose level Control, time 5 day, vehicle .5 % CMC

Compound	Measurement Unit	CHLORIDE
CNC(=C[N+](=O)[O-])NCCSCc1ccc(CN(C)C)o1	MEQ/L	99
O=C1CCC(N2C(=O)c3ccccc3C2=O)C(=O)N1 (stereo not given) [THALIDOMIDE]	MEQ/L	103.17
OC(CCN1CCCCC1)(c1ccccc1)C1CCCCC1 (stereo not given)	MEQ/L	100.67
O=[N+]([O-])c1ccccc1	MEQ/L	104.67
CN1CCC(=C2c3ccccc3C=Cc3ccccc32)CC1	MEQ/L	104
Clc1ccc2c(c1)C(N1CCNCC1)=Nc1ccccc1O2	MEQ/L	102.33
CC(C)[C@H]1CC[C@H](C(=O)N[C@H](Cc2ccccc2)C(=O)O)CC1 [NATEGLINIDE]	MEQ/L	102
C#C[C@]1(O)CC[C@H]2[C@@H]3CCc4cc(OC)ccc4[C@H]3CC[C@@]21C	MEQ/L	99
C[C@]1(Cn2ccnn2)[C@H](C(=O)O)N2C(=O)C[C@H]2S1(=O)=O	MEQ/L	101
CC[C@@H](CO)NCCN[C@@H](CC)CO	MEQ/L	105.67
CN1C(=O)COc2c(C(=O)NC3CN4CCC3CC4)cc(Cl)cc21 (stereo not given)	MEQ/L	98
C[C@](O)(CS(=O)(=O)c1ccc(F)cc1)C(=O)Nc1ccc(C#N)c(C(F)(F)F)c1 [(R)-BICALUTAMIDE]	MEQ/L	101
Cc1onc(-c2ccccc2)c1-c1ccc(S(N)(=O)=O)cc1	MEQ/L	107.67
N=C(N)NC(=O)c1nc(Cl)c(N)nc1N [AMILORIDE]	MEQ/L	105.67
CO[C@H]1/C=C/O[C@@]2(C)Oc3c(C)c(O)c4c(c3C2=O)C2=NC3(CCN(CC(C)C)CC3)NC2=C(NC(=O)/C(C)=C\C=C\[C@H](C)[C@H](O)[C@@H](C)[C@@H](O)[C@@H](C)[C@H](OC(C)=O)[C@@H]1C)C4=O	MEQ/L	99

----------
Species: Rattus norvegicus
Assay: DrugMatrix - Regimen: Daily Repeat
Assay type: toxicity, organism-based, Sprague-Dawley
Design: regimen Daily Repeat, gender Male, age 6-8 weeks
Conditions: in vivo, po, 1500 mg/kg, 120 h, tissue Plasma, route oral GAVAGE, dose level High, time 5 day, vehicle .5 % CMC
The reader will find reported GLUCOSE values listed item by item below.
Quantity Measured: GLUCOSE (mg/dL)

Compound	Measurement Unit	Reported Measurement
CNC(=C[N+](=O)[O-])NCCSCc1ccc(CN(C)C)o1	mg/dL	154
Cc1cc(=O)n(-c2ccccc2)n1C [ANTIPYRINE]	mg/dL	135
CO[C@H]1/C=C/O[C@@]2(C)Oc3c(C)c(O)c4c(c3C2=O)C2=NC3(CCN(CC(C)C)CC3)NC2=C(NC(=O)/C(C)=C\C=C\[C@H](C)[C@H](O)[C@@H](C)[C@@H](O)[C@@H](C)[C@H](OC(C)=O)[C@@H]1C)C4=O	mg/dL	120.5
C[C@]1(Cn2ccnn2)[C@H](C(=O)O)N2C(=O)C[C@H]2S1(=O)=O	mg/dL	170
O=C(N[C@H](CO)[C@H](O)c1ccc([N+](=O)[O-])cc1)C(Cl)Cl	mg/dL	144
NC(=O)c1cnccn1 [PYRAZINAMIDE]	mg/dL	185.67
Cc1ccc(S(=O)(=O)NC(=O)NN2CC3CCCC3C2)cc1 (configuration not stated) [GLICLAZIDE]	mg/dL	101.67

Ref: ChEMBL document CHEMBL3885881
